assay: free base pKa; assay type: physicochemical
Observable: pKa

## Task Data request, read-out pKa, for CCCCC/C=C\C/C=C\CCCCCCCCC(CCCCCCCC/C=C\C/C=C\CCCCC)OC(=O)CCCN(C)C [MC3, reference compound]
## Result > 8
